Where do these numbers come from? They come from patent US20230012368A1.

# System: Acinetobacter baumannii ATCC 17978
# Test details: Antimicrobial susceptibility testing: 90% growth inhibitory concentration (IC90) determination
# Assay type: cell-based
# Condition description: Acinetobacter baumannii, ATCC17978, 16 h, 90% growth inhibitory concentration; Acinetobacter baumannii ATCC17978; Iso-Sensitest broth, OD 600 nm over 16h; read-out: ATCC17978 IC90
Counter-ions that a name gives are not always drawn.
Experimental endpoint: IC90 (nM)
Answers are plain numbers, in nM.

| Compound | IC90 (nM) |
| --- | --- |
| CCc1cc(Nc2nccn3c(-c4ccc(OC(F)F)c(F)c4F)cnc23)ccc1C(=O)NCCCCCN [Example 96, hydrochloride] | 70 |

Consider the following items and state reported IC90 for each.
1. CNC(=O)c1ccc(Nc2nccn3c(-c4ccc(OC)c(Cl)c4)cnc23)cc1
2. COc1ccc(-c2cnc3c(Nc4ccc(C(=O)N(C)CCCN)c(C)c4)nccn23)cc1 [Example 34, hydrochloride]
3. COc1ccc(-c2cnc3c(Nc4ccc5c(c4)CCN(C)C5=O)nccn23)c(F)c1F
4. COc1ccc(-c2cnc3c(Nc4ccc(C(=O)N(C)CCC5CCNCC5)c(C)c4)nccn23)cc1F [Example 11, hydrochloride]
5. COc1ccc(-c2cnc3c(Nc4cc(C)c(C(=O)NCCN)c(F)c4)nccn23)c(F)c1F

A.
1: 1300; 2: 1100; 3: 51; 4: 140; 5: 630

# CCc1cc(Nc2nccn3c(-c4ccc(OCC#N)c(F)c4Cl)cnc23)ccc1C(=O)NCCNC(=O)[C@@H](N)CCCNC(=N)N with Acinetobacter baumannii ATCC 17978: IC90 is 110
